Measurement description: Binding affinity to VBC (unknown origin) using FAM-DEALA-Hyp-YIPD as substrate by fluorescence polarization assay
Set-up: species or system Homo sapiens
pIC50: −log10 of the molar value.
Reported pIC50 values are given for each entry in this list.
Readout type: pIC50

1) CC(=O)N[C@H](C(=O)N1C[C@H](O)C[C@H]1C(=O)N[C@@H](CCC(C)(C)C)c1ccc(-c2scnc2C)cc1)C(C)(C)C; 6.78
2) CC(=O)N[C@H](C(=O)N1C[C@H](O)C[C@H]1C(=O)NCc1ccc(-c2scnc2C)cc1)C(C)(C)C; 6.69
3) CC(=O)N[C@H](C(=O)N1C[C@H](O)C[C@H]1C(=O)N[C@@H](CCc1ccncc1)c1ccc(-c2scnc2C)cc1)C(C)(C)C; 6.65
4) CC(=O)N[C@H](C(=O)N1C[C@H](O)C[C@H]1C(=O)N[C@@H](CCc1ccc(Br)cc1)c1ccc(-c2scnc2C)cc1)C(C)(C)C; 6.72
5) CCOC(=O)CC[C@H](NC(=O)[C@@H]1C[C@@H](O)CN1C(=O)[C@@H](NC(C)=O)C(C)(C)C)c1ccc(-c2scnc2C)cc1; 7.09
6) CCCC[C@H](NC(=O)[C@@H]1C[C@@H](O)CN1C(=O)[C@@H](NC(C)=O)C(C)(C)C)c1ccc(-c2scnc2C)cc1; 6.46
7) CC(=O)N[C@H](C(=O)N1C[C@H](O)C[C@H]1C(=O)N[C@@H](CCc1ccc(O)cc1)c1ccc(-c2scnc2C)cc1)C(C)(C)C; 6.71
8) CC(=O)N[C@H](C(=O)N1C[C@H](O)C[C@H]1C(=O)N[C@@H](CCC(=O)O)c1ccc(-c2scnc2C)cc1)C(C)(C)C; 7.20
9) CC(=O)N[C@H](C(=O)N1C[C@H](O)C[C@H]1C(=O)N[C@@H](c1ccccc1)c1ccc(-c2scnc2C)cc1)C(C)(C)C; 6.64

###

Measurement description: Octanol/water partition coefficient, logD of the compound at pH 7.4
Type: physicochemical
Condition summary: read-out: logD
Readout type: logD

1) CC(=O)N[C@H](C(=O)N1C[C@H](O)C[C@H]1C(=O)N[C@@H](CCC(C)(C)C)c1ccc(-c2scnc2C)cc1)C(C)(C)C; 3.21
2) CC(=O)N[C@H](C(=O)N1C[C@H](O)C[C@H]1C(=O)N[C@@H](CCc1ccc(Br)cc1)c1ccc(-c2scnc2C)cc1)C(C)(C)C; 4.08
3) CCCC[C@H](NC(=O)[C@@H]1C[C@@H](O)CN1C(=O)[C@@H](NC(C)=O)C(C)(C)C)c1ccc(-c2scnc2C)cc1; 2.75
4) CC(=O)N[C@H](C(=O)N1C[C@H](O)C[C@H]1C(=O)N[C@@H](CCC(=O)O)c1ccc(-c2scnc2C)cc1)C(C)(C)C; -0.44
5) CC(=O)N[C@H](C(=O)N1C[C@H](O)C[C@H]1C(=O)N[C@@H](c1ccccc1)c1ccc(-c2scnc2C)cc1)C(C)(C)C; 2.55
6) CC(=O)N[C@H](C(=O)N1C[C@H](O)C[C@H]1C(=O)NCc1ccc(-c2scnc2C)cc1)C(C)(C)C; 0.94
7) CCOC(=O)CC[C@H](NC(=O)[C@@H]1C[C@@H](O)CN1C(=O)[C@@H](NC(C)=O)C(C)(C)C)c1ccc(-c2scnc2C)cc1; 1.59
8) CC(=O)N[C@H](C(=O)N1C[C@H](O)C[C@H]1C(=O)N[C@@H](CCc1ccc(O)cc1)c1ccc(-c2scnc2C)cc1)C(C)(C)C; 3.08

###

Measurement description: Octanol-water partition coefficient, logP of the compound
Assay type: physicochemical
Condition summary: read-out: logP
Readout type: logP

1) CCOC(=O)CC[C@H](NC(=O)[C@@H]1C[C@@H](O)CN1C(=O)[C@@H](NC(C)=O)C(C)(C)C)c1ccc(-c2scnc2C)cc1; 1.59
2) CC(=O)N[C@H](C(=O)N1C[C@H](O)C[C@H]1C(=O)N[C@@H](CCc1ccc(Br)cc1)c1ccc(-c2scnc2C)cc1)C(C)(C)C; 4.08
3) CC(=O)N[C@H](C(=O)N1C[C@H](O)C[C@H]1C(=O)N[C@@H](CCC(C)(C)C)c1ccc(-c2scnc2C)cc1)C(C)(C)C; 3.21
4) CC(=O)N[C@H](C(=O)N1C[C@H](O)C[C@H]1C(=O)N[C@@H](CCC(=O)O)c1ccc(-c2scnc2C)cc1)C(C)(C)C; 1.02

###

Target under test: Hypoxia-inducible factor 1-alpha (Homo sapiens)
Measurement description: Stabilization of HIF-1 alpha in human HeLa cells at 100 uM incubated for 24 hrs by Western blot analysis
Assay type: cell-based
Reported Activity values are given for each entry in this list.
Readout type: Activity (fold)

1. CC(=O)N[C@H](C(=O)N1C[C@H](O)C[C@H]1C(=O)N[C@@H](CCc1ccc(O)cc1)c1ccc(-c2scnc2C)cc1)C(C)(C)C; 1.79
2. CC(=O)N[C@H](C(=O)N1C[C@H](O)C[C@H]1C(=O)NCc1ccc(-c2scnc2C)cc1)C(C)(C)C; 1
3. CCCC[C@H](NC(=O)[C@@H]1C[C@@H](O)CN1C(=O)[C@@H](NC(C)=O)C(C)(C)C)c1ccc(-c2scnc2C)cc1; 1.4
4. CC(=O)N[C@H](C(=O)N1C[C@H](O)C[C@H]1C(=O)N[C@@H](CCC(=O)O)c1ccc(-c2scnc2C)cc1)C(C)(C)C; 1.91
5. CC(=O)N[C@H](C(=O)N1C[C@H](O)C[C@H]1C(=O)N[C@@H](CCc1ccc(Br)cc1)c1ccc(-c2scnc2C)cc1)C(C)(C)C; 1.88
6. CC(=O)N[C@H](C(=O)N1C[C@H](O)C[C@H]1C(=O)N[C@@H](c1ccccc1)c1ccc(-c2scnc2C)cc1)C(C)(C)C; 2.21
7. CC(=O)N[C@H](C(=O)N1C[C@H](O)C[C@H]1C(=O)N[C@@H](CCc1ccncc1)c1ccc(-c2scnc2C)cc1)C(C)(C)C; 0.99
8. CC(=O)N[C@H](C(=O)N1C[C@H](O)C[C@H]1C(=O)N[C@@H](CCC(C)(C)C)c1ccc(-c2scnc2C)cc1)C(C)(C)C; 2.22
9. CCOC(=O)CC[C@H](NC(=O)[C@@H]1C[C@@H](O)CN1C(=O)[C@@H](NC(C)=O)C(C)(C)C)c1ccc(-c2scnc2C)cc1; 1.64
